Measured On: Pseudomonas aeruginosa LpxC enzyme (Pseudomonas aeruginosa (strain ATCC 15692 / DSM 22644 / CIP 104116 / JCM 14847 / LMG 12228 / 1C / PRS 101 / PAO1))
Method Summary: IC50 Assay, LpxC Enzyme from P. aeruginosa (PA LpxC Enzyme IC50)
Format: biochemical
Assay Setup: Table 3; read-out: PA LpxC enzyeme IC^50
Binary call on IC50 with cut-off 4 nM: strictly below means criterion met, and equality or higher means criterion not met.

Here are 3 compounds together with their reported answers.
compound="Cc1ccc(Cc2noc(COc3ccc(CCC(C)(C(=O)NO)S(C)(=O)=O)cc3)n2)cc1 (centres unmarked)" assigned_label="criterion not met"
compound="Cc1cccnc1COc1ccc(CCC(C)(C(=O)NO)S(C)(=O)=O)cc1 (centres unmarked)" assigned_label="criterion met"
compound="Cc1nncn1-c1ccc(OCCOc2ccc(CCC(C)(C(=O)NO)S(C)(=O)=O)cc2)cc1 (centres unmarked)" assigned_label="criterion met"

Ask: Is IC50 strictly under 4 nM for the entry CC(CCc1ccc(OCc2nc(-c3cccc(Cl)c3)no2)cc1)(C(=O)NO)S(C)(=O)=O (centres unmarked) ?
Result: criterion met

Ask: Is it true that IC50 reported for CC(CCc1ccc(OCCC2CCOCC2)cc1)(C(=O)NO)S(C)(=O)=O (centres unmarked) is less than 4 nM?
Result: criterion not met

Ask: Lab log: compare recorded IC50 with 4 nM; is it strictly lower for Cc1ccc(F)c(-c2noc(COc3ccc(CCC(C)(C(=O)NO)S(C)(=O)=O)cc3)n2)c1 (centres unmarked) ?
Result: criterion not met

Ask: In plain terms, does CC(C)CCc1noc(COc2ccc(CCC(C)(C(=O)NO)S(C)(=O)=O)cc2)n1 (centres unmarked) come in under 4 nM for IC50?
Result: criterion met

Ask: Dear colleague, could you confirm whether IC50 of CC(Oc1ccc(CCC(C)(C(=O)NO)S(C)(=O)=O)cc1)c1ccccc1 (centres unmarked) falls below 4 nM? Thanks.
Result: criterion not met

---

Tested on: Klebsiella pneumoniae: Ciprofloxacin-resistant isolate, ESBL, clinical isolate (KP-3700)
Method Summary: MIC determination (CLSI), KP-3700
Type: cell-based
Readout Kind: KP-3700 MIC (mg/L)
Numbers only, in mg/L.

compound="CC(CCc1ccc(OCc2nc(-c3ccccc3)no2)cc1)(C(=O)NO)S(C)(=O)=O (centres unmarked)" measured_on="Klebsiella pneumoniae: Ciprofloxacin-resistant isolate, ESBL, clinical isolate (KP-3700)" readout_kind="KP-3700 MIC" measured=16
compound="CC(CCc1ccc(-c2cccc(Cl)c2Cl)cc1)(C(=O)NO)S(C)(=O)=O (centres unmarked)" measured_on="Klebsiella pneumoniae: Ciprofloxacin-resistant isolate, ESBL, clinical isolate (KP-3700)" readout_kind="KP-3700 MIC" measured=2
compound="CN1CCN(c2ccc(-c3ccc(CCC(C)(C(=O)NO)S(C)(=O)=O)cc3)cc2)CC1 (centres unmarked)" measured_on="Klebsiella pneumoniae: Ciprofloxacin-resistant isolate, ESBL, clinical isolate (KP-3700)" readout_kind="KP-3700 MIC" measured=16
compound="Cc1cc(-c2ccc(CCC(C)(C(=O)NO)S(C)(=O)=O)cc2)ccc1C#N (centres unmarked)" measured_on="Klebsiella pneumoniae: Ciprofloxacin-resistant isolate, ESBL, clinical isolate (KP-3700)" readout_kind="KP-3700 MIC" measured=2

Give KP-3700 MIC for each listed item.
1. CC(CCc1ccc(OCc2cccc(OC(F)(F)F)c2)cc1)(C(=O)NO)S(C)(=O)=O (centres unmarked)
2. Cc1cc(CCC(C)(C(=O)NO)S(C)(=O)=O)ccc1-c1ccccc1 (centres unmarked)

Result:
1: 16; 2: 16

Quick request: KP-3700 MIC for each listed item, please.
1. CC(CCc1ccc(-c2ccc(C#N)c(F)c2)cc1)(C(=O)NO)S(C)(=O)=O (centres unmarked)
2. COc1cccc(-c2ccc(CCC(C)(C(=O)NO)S(C)(=O)=O)cn2)c1F (centres unmarked)
3. CC(CCc1ccc(-c2cccc(C#N)c2)cc1)(C(=O)NO)S(C)(=O)=O (centres unmarked)
4. Cc1ccc(-c2ccc(CCC(C)(C(=O)NO)S(C)(=O)=O)cc2)o1 (centres unmarked)

Result:
1. 4
2. 16
3. 8
4. 32

For record CC(CCc1ccc(-c2ccc(OCCO)c(F)c2)cc1)(C(=O)NO)S(C)(=O)=O (centres unmarked) the listed KP-3700 MIC is 4

---

Tested on: Klebsiella pneumoniae: Ciprofloxacin-resistant isolate, ESBL, clinical isolate (KP-3700)
Method Summary: MIC determination (CLSI), KP-3700
Assay type: cell-based
Protocol: The in vitro antibacterial activity of compounds described in the Examples was evaluated by minimum inhibitory concentration (MIC) testing according to Clinical and Laboratory Standards Institute (CLSI, formerly NCCLS) guidelines. See: Clinical and Laboratory Standards Institute. Methods for Dilution Antimicrobial Susceptibility Tests for Bacteria that Grow Aerobically; Approved Standard-Seventh Edition. CLSI document M7-A7 [ISBN 1-56238-587-9]. […]
Readout Kind: KP-3700 MIC

compound="COc1ccc(-c2ccc(CCC(C)(C(=O)NO)S(C)(=O)=O)cc2)cc1 (racemic) [Example 55]" readout_kind="KP-3700 MIC" measured="2 µg/mL"
compound="CC(CCc1ccc(-c2ccco2)cc1)(C(=O)NO)S(C)(=O)=O (stereo not drawn) [Example 103]" readout_kind="KP-3700 MIC" measured="16 µg/mL"
compound="CC(CCc1ccc(OCc2ccc(S(C)(=O)=O)cc2)cc1)(C(=O)NO)S(C)(=O)=O (stereo not drawn) [Example 309]" readout_kind="KP-3700 MIC" measured="16 µg/mL"
compound="CC(CCc1ccc(-c2ccsc2)cc1)(C(=O)NO)S(C)(=O)=O (stereo not drawn) [Example 77]" readout_kind="KP-3700 MIC" measured="16 µg/mL"
compound="Cc1ccc(COc2ccc(CCC(C)(C(=O)NO)S(C)(=O)=O)cc2)cc1 (stereo not drawn) [Example 263]" readout_kind="KP-3700 MIC" measured="8 µg/mL"

Each compound below has a reported value. Please supply its KP-3700 MIC.
1. CC(CCc1ccc(-c2ccoc2)cc1)(C(=O)NO)S(C)(=O)=O (stereo not drawn) [Example 95]
2. CC(CCc1ccc(-c2ccc(F)cc2)c(O)c1)(C(=O)NO)S(C)(=O)=O (stereo not drawn) [Example 21]
3. COc1cc(-c2ccc(CCC(C)(C(=O)NO)S(C)(=O)=O)cc2)ccc1O (stereo not drawn) [Example 139]
4. CC(CCc1ccc(-c2cc(F)ccc2F)cc1)(C(=O)NO)S(C)(=O)=O (stereo not drawn) [Example 38]

Result:
1: 16 µg/mL; 2: ≧64 mg/L; 3: ≧64 mg/L; 4: 32 µg/mL

---

So I've got a bunch of compounds here, and I need their KP-3700 MIC values.
Test system: Klebsiella pneumoniae: Ciprofloxacin-resistant isolate, ESBL, clinical isolate (KP-3700)
Method Summary: MIC determination (CLSI), KP-3700
Format: cell-based
Answers are plain numbers, in µg/mL.

compound="C[C@@](CCc1ccc(-c2ccc(OCCN3CCOCC3)cc2)cc1)(C(=O)NO)S(C)(=O)=O [Example 172]" readout_kind="KP-3700 MIC" measured=4
compound="CC(CCc1ccc(-c2ccc(C#N)cc2)cc1F)(C(=O)NO)S(C)(=O)=O (centres unmarked) [Example 168]" readout_kind="KP-3700 MIC" measured=2

Please supply KP-3700 MIC for each of the following items, keeping them in order.
1. CC(CCc1ccc(C2=CCSCC2)cc1)(C(=O)NO)S(C)(=O)=O (centres unmarked) [Example 226]
2. CC(CCc1ccc(-c2ccc3[nH]ccc3c2)cc1)(C(=O)NO)S(C)(=O)=O (centres unmarked) [Example 57]
3. C[C@@](CCc1ccc(-c2ccc(C(=O)CO)cc2)cc1)(C(=O)NO)S(C)(=O)=O [Example 186]
4. Cc1cccc(-c2ccc(CCC(C)(C(=O)NO)S(C)(=O)=O)cc2)c1 (racemic) [Example 87]
5. CC(CCc1ccc(-c2ccc(N3CCOCC3)cc2)cc1)(C(=O)NO)S(C)(=O)=O (centres unmarked) [Example 165]
6. Cc1cc(C)cc(-c2ccc(CCC(C)(C(=O)NO)S(C)(=O)=O)cc2)c1 (racemic) [Example 52]

Result:
[8, 8, 4, 4, 8, 4]

Go through the items and report each one's KP-3700 MIC.
1. CC(CCc1ccc(-c2ccc(Cl)cc2Cl)cc1)(C(=O)NO)S(C)(=O)=O (racemic) [Example 70]
2. CC(CCc1ccc(-c2ccc(CCO)cc2F)cc1)(C(=O)NO)S(C)(=O)=O (centres unmarked) [Example 155]
3. CC(CCc1ccc(-c2cccc(Cl)c2)cc1)(C(=O)NO)S(C)(=O)=O (centres unmarked) [Example 88]

Result:
1: 2; 2: 8; 3: 4

---

Measured On: Pseudomonas aeruginosa LpxC enzyme (Pseudomonas aeruginosa (strain ATCC 15692 / DSM 22644 / CIP 104116 / JCM 14847 / LMG 12228 / 1C / PRS 101 / PAO1))
Method Summary: IC50 Assay, LpxC Enzyme from P. aeruginosa (PA LpxC Enzyme IC50)
Format: biochemical
Assay Setup: P. aeruginosa LpxC enzyme; read-out: PA LpxC enzyeme IC50
Readout Kind: IC50 (nM)
Give bare numbers, in nM.

compound="CN1CCN(c2ccc(-c3ccc(CCC(C)(C(=O)NO)S(C)(=O)=O)cc3)cc2)CC1 (centres unmarked)" measured=1.17
compound=C[C@@](CCc1ccc(-c2ccc(OCCCN3CCOCC3)cc2)cc1)(C(=O)NO)S(C)(=O)=O measured=0.172
compound="CC(CCc1ccc(COc2ccc(F)cc2)cc1)(C(=O)NO)S(C)(=O)=O (centres unmarked)" measured=3.28
compound="CC(CCc1ccc(-c2ccc(CCCO)cc2)cc1)(C(=O)NO)S(C)(=O)=O (centres unmarked)" measured=0.132
compound=CC(C)(O)C(=O)c1ccc(-c2ccc(CC[C@](C)(C(=O)NO)S(C)(=O)=O)cc2)cc1 measured=0.278

Hi! Can you tell me IC50 for each of these compounds?
1. CC(CCc1ccc(-c2ccc3c(c2)CNC3)cc1)(C(=O)NO)S(C)(=O)=O (centres unmarked)
2. C[C@@](CCc1ccc(-c2ccc3c(c2)CNC3=O)cc1)(C(=O)NO)S(C)(=O)=O
3. CC(CCc1ccc(-c2cccnc2)c(F)c1)(C(=O)NO)S(C)(=O)=O (centres unmarked)
4. CC(CCc1ccc(-c2ccc(OCCO)cc2)cc1)(C(=O)NO)S(C)(=O)=O (centres unmarked)

Result:
1: 2.68; 2: 0.266; 3: 7.11; 4: 0.148
